Sourced from ChEMBL document CHEMBL3137667

details: human, Liver;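 note: human cytolytic liver injury, shown by histopathology or by a ratio above 5 of peak ALT or AST elevation to alkaline phosphatase elevation, value counts indexed references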
Listed here are molecules together with their documented Hepatotoxicity (cytolytic).

Molecule: [AsH3]
Hepatotoxicity (cytolytic): 0
//
Molecule: CC[C@H]1OC(=O)[C@H](C)C(=O)[C@H](C)[C@@H](O[C@@H]2O[C@H](C)C[C@H](N(C)C)[C@H]2O)[C@](C)(OC)C[C@@H](C)C(=O)[C@H](C)[C@H]2N(CCCCn3cnc(-c4cccnc4)c3)C(=O)O[C@]12C
Hepatotoxicity (cytolytic): 0
//
Molecule: CC1=C(/C=C/C(C)=C/C=C/C(C)=C/CO)C(C)(C)CCC1.O=C(O)Cc1cc(I)c(Oc2ccc(O)c(I)c2)c(I)c1
Hepatotoxicity (cytolytic): 7
//
Molecule: CC1CS(=O)(=O)CCN1/N=C/c1ccc([N+](=O)[O-])o1 (centres undefined)
Hepatotoxicity (cytolytic): 0
